Source of measurements: paper PMC5145856

biological target: OR53/ORco (Anopheles gambiae, UniProt A0ABK8FS74+Q7QCC7); assay type: cell-based; settings: OR53+ORco, agonist alone; listed as linalool
Sequence (A0ABK8FS74 entry or part of it): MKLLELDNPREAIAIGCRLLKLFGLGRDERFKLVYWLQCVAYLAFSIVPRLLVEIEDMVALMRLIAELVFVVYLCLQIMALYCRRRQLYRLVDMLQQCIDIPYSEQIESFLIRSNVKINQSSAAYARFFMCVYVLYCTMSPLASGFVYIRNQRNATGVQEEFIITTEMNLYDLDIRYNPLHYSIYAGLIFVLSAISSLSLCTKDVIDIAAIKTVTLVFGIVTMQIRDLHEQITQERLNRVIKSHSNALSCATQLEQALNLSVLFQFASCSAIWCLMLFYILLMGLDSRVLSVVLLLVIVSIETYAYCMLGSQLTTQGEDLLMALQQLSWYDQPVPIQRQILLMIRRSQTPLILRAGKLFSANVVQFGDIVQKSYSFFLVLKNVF
Sequence (Q7QCC7 whole entry): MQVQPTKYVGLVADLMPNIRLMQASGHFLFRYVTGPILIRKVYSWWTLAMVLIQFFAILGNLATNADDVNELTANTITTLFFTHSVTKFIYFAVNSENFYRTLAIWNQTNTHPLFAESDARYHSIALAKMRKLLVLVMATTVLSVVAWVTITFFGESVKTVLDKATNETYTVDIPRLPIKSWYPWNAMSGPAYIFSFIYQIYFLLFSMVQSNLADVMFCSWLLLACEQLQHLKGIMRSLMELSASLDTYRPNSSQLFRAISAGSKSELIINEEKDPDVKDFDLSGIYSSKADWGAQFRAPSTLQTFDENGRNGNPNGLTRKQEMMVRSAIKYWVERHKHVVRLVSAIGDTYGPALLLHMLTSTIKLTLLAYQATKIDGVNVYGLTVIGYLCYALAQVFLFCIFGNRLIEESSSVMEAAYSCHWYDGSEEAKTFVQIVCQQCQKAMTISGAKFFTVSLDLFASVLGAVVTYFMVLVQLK
pEC50: −log10 of the molar value.
value.type: pEC50

GET /values?readout=pEC50&item= C=CC(C)(O)CCC=C(C)C (stereo not shown) [LIN, Linalool]
~3.74

====

target: OR9/ORco (Anopheles gambiae, UniProt A0ABK8FPD1+Q7QCC7); format: cell-based; conditions: OR9+ORco, agonist alone; listed as 2-ethylphenol
Sequence (A0ABK8FPD1 entry or part of it, one chain of several): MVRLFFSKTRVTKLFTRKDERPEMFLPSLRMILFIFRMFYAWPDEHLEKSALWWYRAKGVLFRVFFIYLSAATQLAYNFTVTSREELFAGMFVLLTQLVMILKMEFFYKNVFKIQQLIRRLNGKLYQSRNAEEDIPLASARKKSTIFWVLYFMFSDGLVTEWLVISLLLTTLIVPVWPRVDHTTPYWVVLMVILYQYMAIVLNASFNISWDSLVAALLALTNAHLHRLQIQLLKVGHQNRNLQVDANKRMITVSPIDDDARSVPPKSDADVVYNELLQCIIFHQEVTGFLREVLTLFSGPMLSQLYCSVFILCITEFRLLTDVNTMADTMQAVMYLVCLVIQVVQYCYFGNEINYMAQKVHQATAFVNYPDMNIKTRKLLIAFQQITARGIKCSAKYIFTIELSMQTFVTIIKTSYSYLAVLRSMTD
pEC50: −log10 of the molar value.
value.type: pEC50

Tell me the measured pEC50 of CCc1ccccc1O [2EP, 2-Ethylphenol] , please.
~4.11
